TARGET DESC: O^6-alkylguanine-DNA alkyltransferase (AGT) (Homo sapiens)
Sequence (P16455 1-207): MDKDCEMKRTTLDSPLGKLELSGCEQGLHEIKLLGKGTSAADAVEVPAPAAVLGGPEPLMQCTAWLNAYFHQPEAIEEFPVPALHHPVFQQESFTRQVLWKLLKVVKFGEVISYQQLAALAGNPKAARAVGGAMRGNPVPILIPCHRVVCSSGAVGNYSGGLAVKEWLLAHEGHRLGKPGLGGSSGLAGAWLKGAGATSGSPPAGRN
PROTOCOL: AGT inactivation in HT29 cell-free extract
We label by threshold. Values of EC50 strictly beneath 2 µM are YES. Values of 2 µM and up are NO.

Previously resolved entries follow.
1) Nc1ncc([N+](=O)[O-])c(OCc2ccccc2)n1: YES
2) O=c1nc(OCc2ccccc2)c2[nH]c(=O)[nH]c2[nH]1: NO
3) Cn1nnc2c(OCc3ccccc3)nc(N)nc21: YES
4) Cn1c(Br)nc2c(OCc3ccccc3)nc(N)nc21 [Compound 10a, O^6-Benzyl-8-bromo-9-methylguanine]: YES
5) CC(C)(C)C(=O)OCn1c(Br)nc2c(OCc3ccccc3)nc(N)nc21 [Compound 10b]: YES
6) CC(C)(C)C(=O)OCn1nnc2nc(N)nc(OCc3ccccc3)c21: YES
7) CNc1nc(OCc2ccccc2)c2nc[nH]c2n1: NO
8) Cn1c(C(F)(F)F)nc2c(OCc3ccccc3)nc(N)nc21: NO

Lab log: compare recorded EC50 with 2 µM; is it strictly lower for `Nc1nc(OCc2ccccc2)c2nc(C(F)(F)F)[nH]c2n1` ?
YES

Lab log: compare recorded EC50 with 2 µM; is it strictly lower for `O=c1nc(OCc2ccccc2)c2[nH]cnc2[nH]1` ?
NO

Lab log: compare recorded EC50 with 2 µM; is it strictly lower for `Fc1nc(OCc2ccccc2)c2nc[nH]c2n1` ?
NO

Lab log: compare recorded EC50 with 2 µM; is it strictly lower for `Cc1nc(N)nc(OCc2ccccc2)c1[N+](=O)[O-]` ?
YES

Lab log: compare recorded EC50 with 2 µM; is it strictly lower for `Cc1nc2c(OCc3ccccc3)nc(N)nc2[nH]1` ?
YES

Lab log: compare recorded EC50 with 2 µM; is it strictly lower for `Nc1nc(N)nc(OCc2ccccc2)n1` ?
NO

Lab log: compare recorded EC50 with 2 µM; is it strictly lower for `CC(=O)Nc1nc(OCc2ccccc2)c2[nH]c(=O)[nH]c2n1` ?
NO

====

TARGET DESC: purified human AGT (Homo sapiens)
PROTOCOL: Inactivation of purified human AGT
CONDITION: Table 2 footnotes; read-out: ED50 with purified human AGT
OBSERVED PROPERTY: pEC50
Numbers only, as −log10 of the molar value.

1) CC(C)(C)C(=O)OCn1nnc2nc(N)nc(OCc3ccccc3)c21: 5.70

Consider now this further compound.
Name the recorded pEC50 of the item `CC(C)(C)C(=O)OCn1nnc2c(OCc3ccccc3)nc(N)nc21` in your answer.
5.40

====

TARGET DESC: O^6-alkylguanine-DNA alkyltransferase (AGT) (Homo sapiens, UniProt P16455)
Sequence (P16455 1-207): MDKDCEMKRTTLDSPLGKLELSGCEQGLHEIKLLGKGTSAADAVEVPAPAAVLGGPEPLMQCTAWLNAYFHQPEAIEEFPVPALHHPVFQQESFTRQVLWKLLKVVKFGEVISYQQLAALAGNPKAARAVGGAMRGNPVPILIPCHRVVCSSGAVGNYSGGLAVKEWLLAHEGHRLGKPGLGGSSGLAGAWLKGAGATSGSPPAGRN
PROTOCOL: AGT inactivation in HT29 cell-free extract
Record form. Attribute: EC50. Fill in for each entry.
One number for each entry, in nM.

1) Nc1nc(OCc2ccccc2)c2nc(N)[nH]c2n1: 700

# return EC50 for each item in the list
1. Nc1nc(OCc2ccccc2)c2[nH]c(=O)[nH]c2n1
2. Nc1nc(N)c(N=O)c(OCc2ccccc2)n1

[300, 60]

Name the recorded EC50 of the item `Nc1cc(OCc2ccccc2)nc(N)n1` in your answer.
15000

====

Record form. Attribute: melting point. Fill in for each entry.

# return melting point for each item in the list
1. CC(C)(C)C(=O)OCn1c(Br)nc2c(OCc3ccccc3)nc(N)nc21 [Compound 10b]
2. Nc1nc(OCc2ccccc2)c2nc(C(F)(F)F)[nH]c2n1
3. Cn1c(C(F)(F)F)nc2c(OCc3ccccc3)nc(N)nc21

1. 217 to 218 °C
2. 214 to 216 °C (dec.)
3. 86 to 89 °C

# return melting point for each item in the list
1. CC(C)(C)C(=O)OCn1nnc2nc(N)nc(OCc3ccccc3)c21
2. CC(C)(C)C(=O)OCn1nnc2c(OCc3ccccc3)nc(N)nc21

["153 to 154 °C", "119 to 120 °C"]

====

TARGET DESC: alkyltransferase P140A (Homo sapiens, UniProt P16455, P140A)
PROTOCOL: Inhibition of mutant alkyltransferase proteins, P140A
CONDITION: P140A; concentration to inactivate 50% of the activity in 30 minutes; read-out: ED50 value
OBSERVED PROPERTY: EC50 (nM)
Answers are plain numbers, in nM.

Supply EC50 measured with alkyltransferase P140A (Homo sapiens, UniProt P16455, P140A) for `Nc1nc(N)c(N=O)c(OCc2ccccc2)n1` .
100

====

TARGET DESC: O^6-alkylguanine-DNA alkyltransferase (AGT) (Homo sapiens)
PROTOCOL: AGT inactivation in HT29 cell-free extract
Record form. Attribute: EC50. Fill in for each entry.
Give bare numbers, in nM.

1) CC(C)(C)C(=O)OCn1cnc2nc(N)nc(OCc3ccccc3)c21 [Compound 12, O^6-benzyl-7-(pivaloyloxymethyl)guanine]: 9000
2) CC(C)(C)C(=O)OCn1nnc2c(OCc3ccccc3)nc(N)nc21 [Compound 8b]: 280
3) Nc1nc(OCc2ccccc2)c2nc(Br)[nH]c2n1 [Compound 1d, O^6-Benzyl-8-bromoguanine]: 80
4) Nc1nc(OCc2ccccc2)c2nn[nH]c2n1 [Compound 2, 8-Aza-O^6-benzylguanine]: 70
5) Nc1ncnc(OCc2ccccc2)c1[N+](=O)[O-] [Compound 3a, 4-Amino-6-benzyloxy-5-nitropyrimidine]: 28000

# return EC50 for each item in the list
1. Nc1nc(N)c(N)c(OCc2ccccc2)n1 [Compound 3c, 2,4,5-triamino-6-benzyloxypyrimidine]
2. CN(C)c1nc(OCc2ccccc2)c2nc[nH]c2n1 [Compound 4f, O^6-Benzyl-N^2,N^2-dimethylguanine]

400
200000

====

Test system: MCF-71 breast cancer cells
PROTOCOL: Killing of MCF-71 breast cancer cells by BCNU combined with AGT inactivators (colony formation)
CONDITION: inactivator 10 μM, BCNU 40 μM
OBSERVED PROPERTY: Colony Formation per 1000 cells
Kindly format the answer as number then unit.

1) Nc1nc(OCc2ccccc2)c2nc(Br)[nH]c2n1 [Compound 1d, O^6-Benzyl-8-bromoguanine]: 3 ± 1 per 1000 cells

# return Colony Formation per 1000 cells for each item in the list
1. Nc1nc(OCc2ccccc2)c2nc[nH]c2n1 [O^6-benzylguanine, reference compound]
2. Nc1nc(OCc2ccccc2)c2nc(N)[nH]c2n1 [Compound 1a, 8-Amino-O^6-benzylguanine]
3. Nc1nc(N)c(N)c(OCc2ccccc2)n1 [Compound 3c, 2,4,5-triamino-6-benzyloxypyrimidine]
4. Nc1nc(OCc2ccccc2)c2[nH]c(=O)[nH]c2n1 [Compound 1c, O^6-Benzyl-8-oxoguanine]
5. Nc1nc(OCc2ccccc2)c2nn[nH]c2n1 [Compound 2, 8-Aza-O^6-benzylguanine]
6. Cc1nc2c(OCc3ccccc3)nc(N)nc2[nH]1 [Compound 1b, O^6-benzyl-8-methylguanine]

1. 4 ± 2 per 1000 cells
2. 95 ± 8 per 1000 cells
3. 12 ± 4 per 1000 cells
4. 4 ± 2 per 1000 cells
5. 2 ± 1 per 1000 cells
6. 2 ± 1 per 1000 cells

====

TARGET DESC: O^6-alkylguanine-DNA alkyltransferase (AGT) (Homo sapiens)
PROTOCOL: AGT inactivation in intact HT29 cells
CONDITION: HT29
Record form. Attribute: ratio of ED50 values in cell-free extracts/intact cells. Fill in for each entry.
Answers are plain numbers.

1) Cn1c(Br)nc2c(OCc3ccccc3)nc(N)nc21 [Compound 10a, O^6-Benzyl-8-bromo-9-methylguanine]: 7.2
2) Cn1c(C(F)(F)F)nc2c(OCc3ccccc3)nc(N)nc21 [Compound 7]: 6.3
3) Nc1nc(OCc2ccccc2)c2nc(Br)[nH]c2n1 [Compound 1d, O^6-Benzyl-8-bromoguanine]: 1.6
4) Cn1nnc2c(OCc3ccccc3)nc(N)nc21 [Compound 8a, 8-Aza-O^6-benzyl-9-methylguanine]: 6.3

Consider now this further compound.
Name the recorded ratio of ED50 values in cell-free extracts/intact cells of the item Nc1nc(OCc2ccccc2)c2nc(C(F)(F)F)[nH]c2n1 [Compound 1e, O^6-Benzyl-8-trifluoromethylguanine] in your answer.
1.6
